Origin of values: patent US20260116991A1

# measured_on: T1, polypeptide GC3pep (human)
# T1 construct: also called membrane proximal polypeptide GC3pep
# T1 peptide: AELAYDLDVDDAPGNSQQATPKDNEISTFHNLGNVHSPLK
# protocol_notes: ELISA, GC3pep coated, antibody 100 nM;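 note: detection with an HRP-conjugated secondary antibody and TMB substrate, color reaction stopped with HCl before absorbance reading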
value_kind: OD450 nm (OD450 nm)
Response body: numeric value in OD450 nm, unit text excluded.

binder	unit_name	OD450 nm
F2.169.2 (antibody, human IgG1, kappa, V domains shown, human-murine chimeric antibody) VH: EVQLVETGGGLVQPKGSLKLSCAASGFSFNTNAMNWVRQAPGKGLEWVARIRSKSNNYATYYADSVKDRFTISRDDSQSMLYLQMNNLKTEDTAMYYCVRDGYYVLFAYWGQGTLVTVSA VL: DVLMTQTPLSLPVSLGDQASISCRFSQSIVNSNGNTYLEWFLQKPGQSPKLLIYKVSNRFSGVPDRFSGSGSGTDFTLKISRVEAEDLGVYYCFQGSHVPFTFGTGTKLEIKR	OD450 nm	2.73
F3.38.7 (antibody, human IgG1, kappa, V domains shown, human-murine chimeric antibody) VH: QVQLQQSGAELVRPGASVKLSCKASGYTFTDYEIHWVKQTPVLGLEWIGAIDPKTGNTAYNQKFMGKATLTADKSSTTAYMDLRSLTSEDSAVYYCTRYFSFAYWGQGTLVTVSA VL: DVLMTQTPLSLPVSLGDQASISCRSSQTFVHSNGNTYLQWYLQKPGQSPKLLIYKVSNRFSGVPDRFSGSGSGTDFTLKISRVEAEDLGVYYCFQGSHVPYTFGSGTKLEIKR	OD450 nm	3.22
F1.120.16 (antibody, human IgG1, kappa, V domains shown, human-murine chimeric antibody) VH: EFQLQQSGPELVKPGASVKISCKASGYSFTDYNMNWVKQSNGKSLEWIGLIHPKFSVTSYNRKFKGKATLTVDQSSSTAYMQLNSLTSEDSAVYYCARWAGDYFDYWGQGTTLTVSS VL: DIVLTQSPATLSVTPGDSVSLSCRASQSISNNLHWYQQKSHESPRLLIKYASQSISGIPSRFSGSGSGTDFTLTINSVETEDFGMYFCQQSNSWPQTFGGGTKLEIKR	OD450 nm	0.08
F2.154.1 (antibody, human IgG1, kappa, V domains shown, human-murine chimeric antibody) VH: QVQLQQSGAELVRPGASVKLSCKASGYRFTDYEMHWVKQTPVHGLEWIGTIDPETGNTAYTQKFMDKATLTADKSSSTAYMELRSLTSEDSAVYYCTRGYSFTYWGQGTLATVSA VL: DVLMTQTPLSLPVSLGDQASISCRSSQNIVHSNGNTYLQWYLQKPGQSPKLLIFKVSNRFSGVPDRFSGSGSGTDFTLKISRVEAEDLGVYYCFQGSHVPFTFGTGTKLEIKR	OD450 nm	2.73

# ---- query binder ----
### Prompt Please report the recorded OD450 nm for F1.73.9 (antibody, human IgG1, kappa, V domains shown, human-murine chimeric antibody) VH: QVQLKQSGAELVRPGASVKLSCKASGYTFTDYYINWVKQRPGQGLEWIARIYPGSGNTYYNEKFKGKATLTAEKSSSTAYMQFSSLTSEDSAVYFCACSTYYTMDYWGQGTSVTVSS VL: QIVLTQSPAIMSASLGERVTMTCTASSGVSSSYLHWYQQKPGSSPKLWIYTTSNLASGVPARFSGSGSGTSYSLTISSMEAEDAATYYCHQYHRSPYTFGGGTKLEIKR .
### Response 0.09
